- SUBJECT OF TEST: human glucagon receptor (human, UniProt P47871 26-477)
- Sequence (P47871 26-477): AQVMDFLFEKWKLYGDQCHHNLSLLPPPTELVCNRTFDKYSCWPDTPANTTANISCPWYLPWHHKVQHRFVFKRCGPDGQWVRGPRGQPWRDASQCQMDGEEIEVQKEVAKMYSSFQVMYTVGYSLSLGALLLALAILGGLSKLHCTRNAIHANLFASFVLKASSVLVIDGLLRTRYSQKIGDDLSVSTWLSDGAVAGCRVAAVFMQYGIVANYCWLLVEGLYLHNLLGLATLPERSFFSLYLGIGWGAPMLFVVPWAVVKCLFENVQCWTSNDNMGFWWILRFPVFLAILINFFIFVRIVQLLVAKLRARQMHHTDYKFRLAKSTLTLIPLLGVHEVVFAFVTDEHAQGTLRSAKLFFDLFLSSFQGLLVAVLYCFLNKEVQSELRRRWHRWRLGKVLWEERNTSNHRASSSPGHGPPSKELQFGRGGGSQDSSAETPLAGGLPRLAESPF
- ASSAY INFO: cell-based or functional assay
Square brackets hold non-standard residues; d marks the D form. Primed or numbered codes have the meaning given here. Ends that are not written are not given here. Abu(4-SO3H) = N[C@@H](CCS(=O)(=O)O)C(=O)O; CH2CH2COOH′ = not defined here
ASSAY READOUT: cAMP IC50 (nM)
Express it in nM; write the number only.

Use the examples below as a reference point.
| BINDER | UNIT SYMBOL | NUMERIC READOUT |
| --- | --- | --- |
| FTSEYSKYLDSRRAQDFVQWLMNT-NH2 [[Glu^9]Glucagon(aa6-29)-NH2] | nM | 97.2 |
| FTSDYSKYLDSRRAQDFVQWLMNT-NH2 [Glucagon(aa6-29)-NH2] | nM | 346 |
| FTS[Abu(4-SO3H)]YSKYLDSRRAQDFVQWLMNT-NH2 [[hCys^9(SO3H)]Glucagon(aa6-29)-NH2] | nM | 133 |
| FTSKYSKYLDSRRAQDFVQWLMNT-NH2 [[Lys^9]Glucagon(aa6-29)-NH2] | nM | 398 |
| FTSC(CH2CH2COOH′)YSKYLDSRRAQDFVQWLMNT-NH2 [[(CSA-2)^9]Glucagon(aa6-29)-NH2] | nM | 116 |

Then there is this binder:
Prompt: Supply measured cAMP IC50 of FTSC(CH2COOH)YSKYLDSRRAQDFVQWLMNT-NH2 [[(CSA-1)^9]Glucagon(aa6-29)-NH2] in your reply.
Completion: 101
